# System name: cKIT (Homo sapiens, UniProt P10721)
# Construct: The kinase domain of cKIT was assayed in 50 mM Hepes; purchased Upstate 14-559
# Sequence (P10721 589-937 limits assumed): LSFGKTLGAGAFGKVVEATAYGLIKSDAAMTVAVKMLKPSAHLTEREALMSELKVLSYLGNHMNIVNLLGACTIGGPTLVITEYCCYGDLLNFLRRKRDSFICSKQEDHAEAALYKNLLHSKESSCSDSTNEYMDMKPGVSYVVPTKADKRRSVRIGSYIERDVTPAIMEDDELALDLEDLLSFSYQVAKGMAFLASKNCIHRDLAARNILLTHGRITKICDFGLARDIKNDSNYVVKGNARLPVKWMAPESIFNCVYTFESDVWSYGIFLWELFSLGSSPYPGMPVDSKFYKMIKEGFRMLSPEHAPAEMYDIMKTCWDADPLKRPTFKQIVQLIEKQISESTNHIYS
# Assay info: Inhibition of cKIT kinase in an in vitro biochemical assay (alphascreen)
# Run conditions: tested at about 1 μM
For each record, write down the corresponding inhibition at 1 µM.

Task: Query (compound): `CNC(=O)c1cc(Oc2ccc3nc(Nc4cccc5c4OCCO5)ncc3c2)ccn1` ; field requested: inhibition at 1 µM
Output: 13%

Hello, I would appreciate it if you could give inhibition at 1 µM for each entry below.
1. CNC(=O)c1cc(Oc2ccc3nc(NCC4(N5CCOCC5)CCCCC4)ncc3c2)ccn1
2. CNC(=O)c1cc(Oc2ccc3nc(Nc4ccccc4OCCO)ncc3c2)ccn1
3. CNC(=O)c1cc(Oc2ccc3nc(NCC4CCCCC4)ncc3c2)ccn1
4. CNC(=O)c1cc(Oc2ccc3sc(N[C@@H]4CCCC[C@H]4O)nc3c2)ccn1
5. CNC(=O)c1cc(Oc2ccc3nc(NC4CCN(C(=O)OC(C)(C)C)CC4)ncc3c2)ccn1
6. CCNC(=O)c1cc(Oc2ccc3nc(Nc4ccccc4N4CCOCC4)ncc3c2)ccn1
7. CNC(=O)c1cc(Oc2ccc3nc(NC(=O)C4CCCCC4)ncc3c2)ccn1

Output:
["16%", "11%", "10%", "39%", "12%", "14%", "13%"]
